Provide the recorded abundance fitness for the entries that follow.
B1: Histone H1t, residues 44 to 112; numbered along this chain, P22492 (parent)
chain: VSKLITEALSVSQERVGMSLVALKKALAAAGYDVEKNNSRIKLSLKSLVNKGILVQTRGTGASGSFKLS

- Variants of: B1
- experiment description: abundance fitness (aPCA) (normalised: wild type 0, dead -1); higher = more abundant; growth selection in yeast, the domain comes from the species named
- condition details: Homo sapiens
Numbers only.

Here are 5 variants together with their reported answers.
N50E | 0.027
R40N | -0.165
Q56P | -0.026
I53C | -0.153
Y32W | -0.116

// batch mode: one abundance fitness value per listed entry
1. V34Q
2. A30Y
3. K67F

A:
-0.309
-0.266
0.06

// batch mode: one abundance fitness value per listed entry
1. A29L
2. E35P
3. V55E
4. K42N
5. A29H
6. L23K
7. V55D

A:
-0.255
-0.31
0.027
-0.379
-0.236
-1.12
-0.291

// batch mode: one abundance fitness value per listed entry
1. A28W
2. K42T
3. G52F
4. N37W

A:
1. -0.327
2. -0.045
3. -0.184
4. -0.083
